# Test system: P. falciparum female gametocytes
# PROTOCOL_NOTES: P. falciparum female gametogenesis assay (Pf FGAA)
# COND: 1: YES; 0: NO
In this section we review reported Is compound selective in assay? Pf FGAA active? values for a set of compounds.

In the examples that follow, each entry is paired with its recorded Is compound selective in assay? Pf FGAA active?.
CN(C)CCNCc1ccc(-c2ccc3c(Nc4ccc(Oc5ccccc5)cc4)ccnc3c2)o1    0 (0: NO)
O=C(NCC1CCN(Cc2cccc(C(F)(F)F)c2)C1)c1cc(-c2cccc(F)c2)cs1.O=C(O)C(F)(F)F (centres unmarked)    0 (0: NO)
c1ccn2c(Sc3ncnc4sccc34)ncc2c1    1 (1: YES)
COc1ccc(-c2cnc3[nH]cc(-c4ccncc4)c3c2)cc1OC    0 (0: NO)
CC(C)(CNC(=O)[C@H]1CCCCN1)c1nc(-c2ccc(Cl)c(O)c2)c(-c2ccncc2)[nH]1.Cl    1 (1: YES)

Per the records, this compound ( CCN(CC)CCN(Cc1ccc(-c2ccc(C(F)(F)F)cc2)cc1)C(=O)Cn1cc(Cc2cnn(C)c2)c(=O)nc1/C=C/c1cccc(F)c1F ) has Is compound selective in assay? Pf FGAA active? equal to 1 (1: YES)

Per the records, this compound ( N#CC(c1ccc(Br)cc1)c1ccc2c(C(F)(F)F)cc(C(F)(F)F)nc2n1 (centres unmarked) ) has Is compound selective in assay? Pf FGAA active? equal to 0 (0: NO)

Per the records, this compound ( Cc1cccc2nc(-c3ccc(-c4ccc(CNCc5ccc(CN)cc5)cc4)cc3)[nH]c12.O=C(O)C(F)(F)F ) has Is compound selective in assay? Pf FGAA active? equal to 0 (0: NO)

* * *

# Tested on: HepG2 cells
# PROTOCOL_NOTES: HepG2 cytotoxicity assay
# COND: read-out: HepG2 cytotoxicity assay IC50; dose response confirmation
In this section we review reported pIC50 values for a set of molecules.
The value called pIC50 is obtained by taking minus log10 of the concentration in mol/L.

COc1coc(C(=O)NC2CCN(CC3(c4ccc(Cl)cc4)CCC3)CC2)c1OC    4.28
CCC(C)CN1CCN(c2ccc(NC(=O)c3cccs3)cc2)C(C)C1.O=C(O)C(F)(F)F (centres unmarked)    4.22
CC1(C)N=C(N)N=C(N)N1OCCCc1ccccc1.Cl    9.00
Cc1ccc2[nH]c(C)c(Br)c(=O)c2c1    4.00

Per the records, this molecule ( O=C(NCC1CCCCC1)c1cc(=O)c2ccccc2o1 ) has pIC50 equal to 4.00

Per the records, this molecule ( Cc1nc(C)c(-c2ccc(Oc3cc(Cl)cc(Cl)c3)cc2)c(O)c1Cl ) has pIC50 equal to 8.77

* * *

In this section we review reported IC50 values for a set of molecules.
# Tested on: HepG2 cells
# PROTOCOL_NOTES: HepG2 cytotoxicity assay
# COND: read-out: HepG2 cytotoxicity assay IC50; dose response confirmation
Numbers only here, please. The scale is µM.

Per the records, this molecule ( O=C(NCc1ccco1)c1ccc(CN2CCN(C(c3ccccc3)c3ccccc3)CC2)cc1 ) has IC50 equal to 52.5

* * *

# Test system: P. falciparum late stage (stages IV-V) gametocytes
# PROTOCOL_NOTES: P. falciparum late stage gametocyte ATP depletion assay (Pf GC-ATP)
# COND: 1: YES; 0: NO; >10-fold selectivity over cytotoxicity
REPORTED_METRIC: Is compound selective in assay? Pf GC-ATP active?

O=C(O)C(F)(F)F.c1cc(CNCCN2CCNCC2)cc(-c2cccc(-c3nc4ccccc4[nH]3)c2)c1    1 (1: YES)
CC(C)CC(=O)N(Cc1ccc(-c2ccc(CNC3Cc4ccccc4C3)cc2)cc1)C1CCNCC1.O=C(O)C(F)(F)F    0 (0: NO)
CCN(CC)CCN(Cc1ccc(-c2ccc(C(F)(F)F)cc2)cc1)C(=O)c1ccc(-c2ccc(NC(=O)OC)cc2C)cc1    0 (0: NO)
CCc1ccc(CN2CCC(CNC(=O)c3cc(-c4cccc(F)c4)cs3)C2)cc1.O=C(O)C(F)(F)F (stereo not shown)    0 (0: NO)
CCN(CC)CCOc1ccc(C(O)(C#CC(O)(c2ccc(C)cc2)c2ccc(OCCN(CC)CC)cc2)c2ccc(C)cc2)cc1 (stereo not shown)    1 (1: YES)

Per the records, this compound ( Cl.NCCCOc1cnc(-c2ccccc2)c2nc(-c3nonc3N)n(CCc3ccccc3)c12 ) has Is compound selective in assay? Pf GC-ATP active? equal to 0 (0: NO)

Per the records, this compound ( COCCCNC(=S)NN=C(C)c1ccccn1 ) has Is compound selective in assay? Pf GC-ATP active? equal to 1 (1: YES)

Cited source for all entries: paper PMC6753678
